Test: small molecules boosting NK-mediated OVCAR3 lysis – imaging, primary NK cells, calcein-AM imaging, primary screen (AID 1508625);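 note: compound given to NK cells 16 h before adding targets at 1.5 to 1 ratio; more negative robust z means stronger NK killing of tumor cells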
Conditions: OVCAR3 lysis by primary NK cells, at 5 µM; measured here: robust Z-score, single-point normalisation
measure: z-score

>  <line_notation>
O=C1CSc2ccc(S(=O)(=O)N3CCOCC3)cc2N1

>  <data_value>
-1.34

$$$$
>  <line_notation>
Cc1cc(N2CCN(C(=O)c3cccc(F)c3F)CC2)c(F)cc1[N+](=O)[O-]

>  <data_value>
-1.92

$$$$
>  <line_notation>
COc1cccc(N2CCN(C(=O)Nc3ccc(F)cc3)CC2)c1

>  <data_value>
-1.43

$$$$
>  <line_notation>
COc1cccc(NS(=O)(=O)c2ccc3c(c2)[C@H]2C=CC[C@H]2[C@@H](c2ccccc2Cl)N3)c1

>  <data_value>
-2.64

$$$$
>  <line_notation>
N#Cc1ccccc1NC(=O)CSc1nnc(N)s1

>  <data_value>
0.632

$$$$
>  <line_notation>
COc1ccc(C=Nc2ccc(C(N)=O)cc2)cc1

>  <data_value>
-0.885

$$$$

###

Test: small molecules boosting NK-mediated OVCAR3 lysis – imaging, primary NK cells, calcein-AM imaging, primary screen (AID 1508625);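 note: compound given to NK cells 16 h before adding targets at 1.5 to 1 ratio; more negative robust z means stronger NK killing of tumor cells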
Details: OVCAR3 lysis by primary NK cells, at 5 µM; measured here: robust Z-score, single-point normalisation
Class key for z-score values: low interval (below -2), middle interval (-2 to below -0.6), high interval (-0.6 or more)

>  <molecule>
Cc1ccccc1-n1nnnc1C(c1ccccc1)N(C)Cc1ccc(Cl)c(Cl)c1 (stereo unspecified)

>  <class_name>
middle interval

$$$$
>  <molecule>
Cc1ccc(C(=O)Oc2ccc(C(=S)N3CCOCC3)cc2)cc1

>  <class_name>
middle interval

$$$$
>  <molecule>
Cc1ccc(NC(=O)CCNC(=O)Cn2cnc3ccccc3c2=O)c(Br)c1

>  <class_name>
high interval

$$$$
>  <molecule>
O=C(Oc1ccccc1C(=S)N1CCOCC1)c1ccc([N+](=O)[O-])cc1

>  <class_name>
high interval

$$$$
>  <molecule>
COc1ccc(N2C3=C(C(=O)CC(C)(C)C3)C(c3cccc(F)c3)C3=C2CC(C)(C)CC3=O)c(OC)c1

>  <class_name>
high interval

$$$$
>  <molecule>
CC1=C(C(=O)OCCc2ccccc2)C(c2coc3ccc(C)cc3c2=O)C2=C(CC(c3cccs3)CC2=O)N1 (stereo unspecified)

>  <class_name>
high interval

$$$$
>  <molecule>
CCCCNC(=O)c1c[nH]c2ccc(S(=O)(=O)Nc3cccc(SC)c3)cc2c1=O

>  <class_name>
high interval

$$$$
>  <molecule>
O=C(c1ccc([N+](=O)[O-])cc1)N1N=C(C2CC2)CC1(O)C(F)F (stereo unspecified)

>  <class_name>
middle interval

$$$$
>  <molecule>
COc1ccc(OC(C)C(=O)Nc2ccc(Br)cc2)cc1 (stereo unspecified)

>  <class_name>
low interval

$$$$
>  <molecule>
Cc1ccc(N2C(=O)C(N3C(=O)c4cccc([N+](=O)[O-])c4C3=O)C2c2ccc(F)cc2)cc1F (stereo unspecified)

>  <class_name>
middle interval

$$$$
>  <molecule>
Cc1sc(NC(=O)C2c3ccccc3Oc3ccccc32)c(C(N)=O)c1C

>  <class_name>
low interval

$$$$
>  <molecule>
COc1ccc(S(=O)(=O)NCc2ccc(C(=O)N(C)Cc3ccco3)cc2)cc1

>  <class_name>
middle interval

$$$$
>  <molecule>
O=C(c1nn2c(C(F)(F)F)cc(-c3ccco3)nc2c1Br)N1CCCCC1

>  <class_name>
middle interval

$$$$
>  <molecule>
COc1ccccc1C(=O)CC1(O)C(=O)Nc2ccccc21 (stereo unspecified)

>  <class_name>
middle interval

$$$$
>  <molecule>
CCOc1ccc(NC(=O)Cn2c(=O)n(CCc3ccccc3)c(=O)c3c4c(sc32)CCCC4)cc1

>  <class_name>
low interval

$$$$
>  <molecule>
CCN1CCN(C(=O)c2oc3ccc(S(=O)(=O)N4CCCCCC4)cc3c2C)CC1

>  <class_name>
middle interval

$$$$
>  <molecule>
Nc1cc(OC(=O)c2ccccc2Br)nn1S(=O)(=O)c1ccccc1

>  <class_name>
high interval

$$$$
>  <molecule>
Cc1ccc(S(=O)(=O)N2CCCCCC2)cc1C

>  <class_name>
high interval

$$$$
>  <molecule>
COc1cccc(Nc2ncnc3sc(C)c(S(=O)(=O)N4CCC(C)CC4)c23)c1

>  <class_name>
middle interval

$$$$
